# subjectOfTest: CDK2/CycA2 kinase (Homo sapiens (Human))
# methodSummary: Determination of inhibitory activity against CDK2/CycA2 kinase
# Type: biochemical
# particulars: read-out: CDK2/CycA2 10 μM ATP (kinase) IC50
pIC50: −log10 of the molar value.
quantity: pIC50

Dear colleague, I am looking for the recorded pIC50 of the following molecule: "C[C@@H](NC(=O)O[C@@H]1CC[C@H](c2cc(Nc3ccc4c(c3)CS(=O)(=O)C4)n[nH]2)C1)C(F)(F)F"
> 8.00

Dear colleague, I am looking for the recorded pIC50 of the following molecule: "CC(C)NC(=O)O[C@@H]1CC[C@H](c2cc(Nc3ccc(NS(C)(=O)=O)c(OC(F)F)c3)n[nH]2)C1"
> 8.00

Dear colleague, I am looking for the recorded pIC50 of the following molecule: CC(C)NC(=O)O[C@@H]1CC[C@H](c2cc(Nc3ccc(S(C)(=N)=O)c(F)c3)n[nH]2)C1 (stereo partly shown)
> 8.00

Dear colleague, I am looking for the recorded pIC50 of the following molecule: "CC(C)NC(=O)O[C@@H]1CC[C@H](c2cc(Nc3ccc4c(c3)CS(=O)(=O)N4)n[nH]2)C1"
> 8.00

* * *

# subjectOfTest: CDK2 CycE1 kinase (Homo sapiens (Human))
# methodSummary: Determination of inhibitory activity against CDK2 CycE1 kinase
# Type: biochemical
# particulars: 10 μM ATP
quantity: IC50

Dear colleague, I am looking for the recorded IC50 of the following molecule: "CC(C)NC(=O)O[C@@H]1CC[C@H](c2cc(Nc3ccc(NC=O)cn3)n[nH]2)C1"
< 10 nM

Dear colleague, I am looking for the recorded IC50 of the following molecule: "CC(C)NC(=O)O[C@H]1CC[C@@H](c2cc(Nc3ccc(NS(C)(=O)=O)c(C(F)(F)F)c3)n[nH]2)C1"
< 10 nM

Dear colleague, I am looking for the recorded IC50 of the following molecule: "CC(C)NC(=O)O[C@@H]1CC[C@H](c2cc(Nc3ccc(-c4cnco4)cn3)n[nH]2)C1"
< 10 nM

Dear colleague, I am looking for the recorded IC50 of the following molecule: "CC(C)NC(=O)O[C@@H]1CC[C@H](c2cc(Nc3ccc(S(N)(=O)=O)cc3F)n[nH]2)C1"
< 10 nM

Dear colleague, I am looking for the recorded IC50 of the following molecule: "CC(C)NC(=O)O[C@@H]1CC[C@H](c2cc(Nc3ccc(NS(C)(=O)=O)c(F)c3)n[nH]2)C1"
< 10 nM

Dear colleague, I am looking for the recorded IC50 of the following molecule: "[2H]C([2H])([2H])C([2H])(NC(=O)O[C@@H]1CC[C@H](c2cc(Nc3ccc(S(N)(=O)=O)c(Cl)n3)n[nH]2)C1)C([2H])([2H])[2H]"
< 10 nM

Dear colleague, I am looking for the recorded IC50 of the following molecule: "CC(C)NC(=O)O[C@@H]1CC[C@H](c2cc(Nc3ccc(NS(C)(=O)=O)c(F)c3F)n[nH]2)C1"
< 10 nM

* * *

# subjectOfTest: CDK2/CycA2 kinase (Homo sapiens (Human))
# methodSummary: Determination of inhibitory activity against CDK2/CycA2 kinase
# Assay type: biochemical
# particulars: 10 μM ATP
quantity: IC50

Form field: IC50 recorded for "[2H]C([2H])([2H])C([2H])(NC(=O)O[C@@H]1CC[C@H](c2cc(Nc3ccc(S(N)(=O)=O)c(Cl)n3)n[nH]2)C1)C([2H])([2H])[2H]" with CDK2/CycA2 kinase (Homo sapiens (Human)) (enter value)
< 10 nM

Form field: IC50 recorded for "CC(C)NC(=O)O[C@@H]1CC[C@H](c2cc(Nc3ccc(S(N)(=O)=O)cc3F)n[nH]2)C1" with CDK2/CycA2 kinase (Homo sapiens (Human)) (enter value)
< 10 nM

Form field: IC50 recorded for "CC(C)NC(=O)O[C@@H]1CC[C@H](c2cc(Nc3ccc(-c4cnco4)cn3)n[nH]2)C1" with CDK2/CycA2 kinase (Homo sapiens (Human)) (enter value)
10 to 50 nM

Form field: IC50 recorded for "CC(C)NC(=O)O[C@@H]1CC[C@H](c2cc(Nc3ccc(NS(C)(=O)=O)cc3F)n[nH]2)C1" with CDK2/CycA2 kinase (Homo sapiens (Human)) (enter value)
< 10 nM

Form field: IC50 recorded for "CC1(NC(=O)O[C@@H]2CC[C@H](c3cc(Nc4ccc5c(c4)CS(=O)(=O)C5)n[nH]3)C2)CC1" with CDK2/CycA2 kinase (Homo sapiens (Human)) (enter value)
< 10 nM

Form field: IC50 recorded for COCCNc1ccc(Nc2cc(C3CCC(OC(=O)NC(C)C)C3)[nH]n2)nc1 (stereo not shown) with CDK2/CycA2 kinase (Homo sapiens (Human)) (enter value)
10 to 50 nM

Form field: IC50 recorded for CC(C)NC(=O)O[C@@H]1CC[C@H](c2cc(Nc3ccc(S(=N)(=O)C4CC4)cc3)n[nH]2)C1 (stereo partly shown) with CDK2/CycA2 kinase (Homo sapiens (Human)) (enter value)
< 10 nM

* * *

Please provide measured pIC50 for the entries that follow.
# subjectOfTest: CDK2/CycA2 kinase (Homo sapiens (Human), UniProt P24941)
# methodSummary: Determination of inhibitory activity against CDK2/CycA2 kinase
# Format: biochemical
# particulars: 10 μM ATP
pIC50: −log10 of the molar value.

Form field: pIC50 recorded for "CC(C)NC(=O)O[C@@H]1CC[C@H](c2cc(Nc3ccc(NS(C)(=O)=O)c(C(F)(F)F)n3)n[nH]2)C1" with CDK2/CycA2 kinase (Homo sapiens (Human), UniProt P24941) (enter value)
> 8.00

Form field: pIC50 recorded for "CC(C)NC(=O)O[C@@H]1CC[C@H](c2cc(Nc3ccc(S(N)(=O)=O)cc3)n[nH]2)C1" with CDK2/CycA2 kinase (Homo sapiens (Human), UniProt P24941) (enter value)
> 8.00

Form field: pIC50 recorded for COCc1ccc(Nc2cc(C3CCC(OC(=O)NC(C)C)C3)[nH]n2)nc1 (stereo not shown) with CDK2/CycA2 kinase (Homo sapiens (Human), UniProt P24941) (enter value)
7.30 to 8.00

Form field: pIC50 recorded for "CC(C)NC(=O)O[C@@H]1CC[C@H](c2cc(Nc3ccc4c(c3)S(=O)(=O)CC4)n[nH]2)C1" with CDK2/CycA2 kinase (Homo sapiens (Human), UniProt P24941) (enter value)
7.30 to 8.00

Form field: pIC50 recorded for "CC(C)NC(=O)O[C@@H]1CC[C@H](c2cc(Nc3ccc(NS(C)(=O)=O)c(Cl)c3)n[nH]2)C1" with CDK2/CycA2 kinase (Homo sapiens (Human), UniProt P24941) (enter value)
> 8.00

Form field: pIC50 recorded for "CC(C)NC(=O)O[C@@H]1CC[C@H](c2cc(Nc3ccc(C#N)cc3)n[nH]2)C1" with CDK2/CycA2 kinase (Homo sapiens (Human), UniProt P24941) (enter value)
> 8.00

Form field: pIC50 recorded for "CC(C)NC(=O)O[C@@H]1CC[C@H](c2cc(Nc3ccc(N(C)S(C)(=O)=O)cn3)n[nH]2)C1" with CDK2/CycA2 kinase (Homo sapiens (Human), UniProt P24941) (enter value)
7.30 to 8.00

Form field: pIC50 recorded for "CC(C)NC(=O)O[C@@H]1CC[C@H](c2cc(Nc3ccc(S(N)(=O)=O)c(Cl)n3)n[nH]2)C1" with CDK2/CycA2 kinase (Homo sapiens (Human), UniProt P24941) (enter value)
> 8.00

Form field: pIC50 recorded for "CC(C)NC(=O)O[C@@H]1CC[C@H](c2cc(Nc3ccc(S(N)(=O)=O)c(C(F)(F)F)c3)n[nH]2)C1" with CDK2/CycA2 kinase (Homo sapiens (Human), UniProt P24941) (enter value)
> 8.00

Form field: pIC50 recorded for "CC(C)NC(=O)O[C@H]1CC[C@@H](c2cc(Nc3ccc(NS(C)(=O)=O)c(C(F)(F)F)c3)n[nH]2)C1" with CDK2/CycA2 kinase (Homo sapiens (Human), UniProt P24941) (enter value)
> 8.00
